Biological target: LTD4 receptor (Cavia porcellus, UniProt Q2NNR5)
Construct: guinea pig pulmomembranous protein; from tissue; host or cells: guinea pig lung membranes
Sequence (Q2NNR5 1-340): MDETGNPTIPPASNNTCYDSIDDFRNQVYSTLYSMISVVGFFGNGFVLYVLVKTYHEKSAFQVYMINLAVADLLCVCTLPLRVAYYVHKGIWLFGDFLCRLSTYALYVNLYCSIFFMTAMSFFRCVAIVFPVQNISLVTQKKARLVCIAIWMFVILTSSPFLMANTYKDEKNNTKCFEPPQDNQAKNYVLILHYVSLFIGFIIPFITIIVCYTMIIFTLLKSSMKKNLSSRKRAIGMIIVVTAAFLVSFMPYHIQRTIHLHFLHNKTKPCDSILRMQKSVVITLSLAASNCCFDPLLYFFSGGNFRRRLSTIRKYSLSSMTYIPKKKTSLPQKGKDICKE
Test: LTD4 receptor binding inhibition test ([^3 H]leukotriene D4, guinea pig pulmomembranous protein)
Details: read-out: LTD4 receptor, dissociation constant KD
Kd vs 300 nM: less than gives 1.0; not less than gives 0.0.

Worked set:
# molecule, class name
records = [
    ("Cc1ccc(OCc2cccc(OCc3ccc4ccccc4n3)c2)c2cc(C#N)c(=O)[nH]c12 [Example 3]", 0.0),
    ("O=C1CSc2cc(NCc3cccc(OCc4ccc5ccccc5n4)c3)ccc2N1 [Example 94]", 0.0),
    ("O=C1CCCc2cc(OCc3cccc(OCc4ccc5ccccc5n4)c3)ccc2N1 [Example 9]", 1.0),
    ("CN1C(=O)CSc2c(NCc3cccc(OCc4ccc5ccccc5n4)c3)cccc21 [Example 97]", 0.0),
    ("O=C1CCCc2cc(OCc3cccc(OCc4ncc5ccccc5n4)c3)ccc21 [Example 90]", 1.0),
]

hey, is Kd for CC1(C)C(=O)Nc2c(OCc3cccc(OCc4ccc5ccccc5n4)c3)cccc21 [Example 17] lower than 300 nM or not?
1.0

hey, is Kd for O=C1CCc2cc(OCc3cccc(OCc4ccc5ccccc5n4)c3)ccc2N1 [Example 6] lower than 300 nM or not?
1.0

hey, is Kd for O=C1CCc2cc(OC(=O)c3cccc(OCc4ccc5ccccc5n4)c3)ccc2N1 [Example 55] lower than 300 nM or not?
0.0

hey, is Kd for CC1(C)C(=O)Nc2ccc(OCc3ccc(OCc4ccc5ccccc5n4)cc3)cc21 [Example 18] lower than 300 nM or not?
0.0

hey, is Kd for O=C1CCCc2cc(OCc3cccc(OCc4ccc5ccccc5n4)c3)ccc21 [Example 89] lower than 300 nM or not?
1.0

hey, is Kd for Cc1ccc(OCc2cccc(OCc3ccc4ccccc4n3)c2)c2c1NC(=O)CC2 [Example 5] lower than 300 nM or not?
0.0

hey, is Kd for O=C(O)c1cc2cc(OCc3cccc(OCc4ccc5ccccc5n4)c3)ccc2[nH]c1=O [Example 50] lower than 300 nM or not?
0.0

hey, is Kd for O=C1CCc2cccc(OCc3cccc(OCc4ccc5ccccc5n4)c3)c2N1 [Example 8] lower than 300 nM or not?
0.0
